- Target Under Test: UniProt:P22455
- Sequence (P22455 22-802): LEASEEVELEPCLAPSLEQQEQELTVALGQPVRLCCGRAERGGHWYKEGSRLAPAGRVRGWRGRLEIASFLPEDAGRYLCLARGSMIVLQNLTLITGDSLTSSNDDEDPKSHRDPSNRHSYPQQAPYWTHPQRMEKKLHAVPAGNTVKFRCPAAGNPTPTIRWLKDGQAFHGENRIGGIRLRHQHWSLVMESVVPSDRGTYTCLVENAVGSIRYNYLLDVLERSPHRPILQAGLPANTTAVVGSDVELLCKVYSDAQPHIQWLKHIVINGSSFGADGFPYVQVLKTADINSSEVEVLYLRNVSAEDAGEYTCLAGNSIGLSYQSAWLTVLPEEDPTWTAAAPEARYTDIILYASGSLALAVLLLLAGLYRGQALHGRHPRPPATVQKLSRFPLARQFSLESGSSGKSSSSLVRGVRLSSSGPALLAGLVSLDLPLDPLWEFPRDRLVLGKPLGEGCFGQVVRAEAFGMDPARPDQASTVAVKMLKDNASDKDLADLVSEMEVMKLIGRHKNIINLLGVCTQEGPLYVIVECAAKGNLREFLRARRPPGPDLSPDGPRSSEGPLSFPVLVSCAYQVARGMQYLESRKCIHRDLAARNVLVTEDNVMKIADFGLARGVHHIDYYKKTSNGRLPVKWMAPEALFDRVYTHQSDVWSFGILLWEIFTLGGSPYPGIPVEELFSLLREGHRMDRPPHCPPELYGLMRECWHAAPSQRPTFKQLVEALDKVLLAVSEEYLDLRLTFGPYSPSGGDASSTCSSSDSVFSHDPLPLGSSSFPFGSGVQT
- Assay: FGFR4 (enzymatic assay), TR-FRET
- Assay type: biochemical
- Assay Setup: FGFR 4 pIC50, enzymatic assay
pIC50: −log10 of the molar value.
pIC50 below 8 gives FALSE; pIC50 at or above it gives TRUE.

> print(dat)
                                    compound  target.under.test  qualitative.label
 1  COc1cc(OC)c(F)c(N(CCN2CCOCC2)c2ccc3ncc(-c4cnn(C)c4)nc3n2)c1 [Compound 149]     UniProt:P22455               TRUE
 2  COc1ccc(Cl)c(N(CC2CCC(=O)N2)c2ccc3ncc(-c4cnn(C)c4)nc3n2)c1Cl (single isomer, unassigned) [Compound 91]     UniProt:P22455              FALSE
 3  COc1cc(OC)c(F)c(N(CC(=O)NC(C)C)c2ccc3ncc(-c4cnn(C)c4)nc3n2)c1 [Compound 249]     UniProt:P22455              FALSE
 4  COc1cc(OC)cc(N(CCO)c2ccc3ncc(-c4ccncc4)nc3n2)c1 [Compound 213]     UniProt:P22455              FALSE
 5  COc1cc(OC)c(F)c(N(Cc2ncc[nH]2)c2ccc3ncc(N4CCOCC4)nc3n2)c1F [Compound 215]     UniProt:P22455               TRUE
 6  COc1cc(/N=c2\ccc3ncc(-c4cnn(C)c4)nc3n2CCNC(C)=O)c(F)c(OC)c1 [Compound 243]     UniProt:P22455               TRUE
 7  COc1cc(OC)c(F)c(N(Cc2ncc[nH]2)c2ccc3ncc(N4CCOCC4)nc3n2)c1 [Compound 291]     UniProt:P22455               TRUE
 8  COc1cc(OC)c(F)c(N(C)c2ccc3ncc(-c4cnn(C)c4)nc3n2)c1F (single isomer, unassigned) [Compound 254]     UniProt:P22455               TRUE
 9  COc1cc(/N=c2\ccc3ncc(-c4cnn(C)c4)nc3n2CC2CCC(=O)N2C)c(F)c(OC)c1 (stereo not drawn) [Compound 158]     UniProt:P22455               TRUE
10  COc1cc(/N=c2\ccc3ncc(-c4cnn(C)c4)nc3n2CCCN2CCCC2=O)cc(OC)c1 [Compound 133]     UniProt:P22455               TRUE
11  COc1cc(OC)c(F)c(N(CC#N)c2ccc3ncc(-c4cnn(C)c4)nc3n2)c1F [Compound 173]     UniProt:P22455               TRUE
12  COc1cc(/N=c2\ccc3ncc(-c4cnn(C)c4)nc3n2CC2COC2)c(F)c(OC)c1 [Compound 143]     UniProt:P22455               TRUE
13  COc1cc(OC)c(F)c(N(c2ccc3ncc(-c4cnn(C)c4)nc3n2)C(C)c2ncc[nH]2)c1 (stereo not drawn) [Compound 287]     UniProt:P22455               TRUE
14  COc1cc(OC)c(F)c(N(CC2CCOC2)c2ccc3ncc(-c4cnn(C)c4)nc3n2)c1 (single isomer, unassigned) [Compound 170]     UniProt:P22455               TRUE
15  COc1cc(OC)c(F)c(N(Cc2n[nH]c(=O)o2)c2ccc3ncc(-c4cnn(C)c4)nc3n2)c1 [Compound 284]     UniProt:P22455               TRUE
16  COc1cc(OC)c(F)c(N(Cc2cn[nH]c2)c2ccc3ncc(-c4cnn(C)c4)nc3n2)c1 [Compound 125]     UniProt:P22455               TRUE
17  CCN(c1ccc2ncc(-c3cnn(C)c3)nc2n1)c1c(F)c(OC)cc(OC)c1F [Compound 256]     UniProt:P22455               TRUE
18  COc1cc(OC)c(F)c(N(Cc2nnc(NCCO)o2)c2ccc3ncc(-c4cnn(C)c4)nc3n2)c1 [Compound 283]     UniProt:P22455              FALSE
19  COc1cc(OC)c(F)c(N(Cc2cc(C)no2)c2ccc3ncc(-c4cnn(C)c4)nc3n2)c1 [Compound 185]     UniProt:P22455               TRUE
20  COc1cc(OC)c(C)c(N(Cc2ncc[nH]2)c2ccc3ncc(-c4cnn(C)c4)nc3n2)c1 [Compound 273]     UniProt:P22455               TRUE
21  COc1cc(OC)cc(N(Cc2nncn2CCO)c2ccc3ncc(-c4cnn(C)c4)nc3n2)c1 [Compound 204]     UniProt:P22455              FALSE
22  CCn1cc(-c2cnc3ccc(N(Cc4ncc[nH]4)c4cc(OC)cc(OC)c4F)nc3n2)cn1 [Compound 223]     UniProt:P22455               TRUE
23  COc1cc(OC)cc(N(CCN2CCOCC2)c2ccc3ncc(-c4cnn(C)c4)nc3n2)c1 [Compound 146]     UniProt:P22455              FALSE
24  COc1cc(OC)c(F)c(N(Cc2cc(C)on2)c2ccc3ncc(-c4cnn(C)c4)nc3n2)c1 [Compound 180]     UniProt:P22455               TRUE
25  COc1cc(OC)c(F)c(N(Cc2ncc[nH]2)c2ccc3ncc(-c4cnn(CCS(C)(=O)=O)c4)nc3n2)c1 [Compound 264]     UniProt:P22455               TRUE

Source of measurements: patent US9309242B2
